Would you mind telling me the reported IC50 of each entry?
target.or.test.system: crosslinked smooth muscle actomyosin (chicken gizzard smooth muscle myosin subfragment-1 crosslinked to cardiac or skeletal actin) (Gallus gallus)
Numbers only, in µM.

Count: 4. Required value per item: IC50.
1. Cc1c(F)cccc1CNC(=O)C1(COC(=O)Nc2ccc(C(F)(F)F)cc2)CCN(C(=O)CNC(=O)OC(C)(C)C)CC1
2. CCc1ccc(NC(=O)OCC2(C(=O)NCc3ccccc3CO)CCN(C(=O)CN)CC2)cc1
3. CCc1ccc(NC(=O)OCC2(C(=O)NCc3ccc(C(F)(F)F)cc3F)CCN(C(=O)CN)CC2)cc1
4. CCc1ccc(NC(=O)N(CCCOC)CC2(C(=O)NCc3ccccc3Cl)CCN(C(=O)CN)CC2)cc1

Response:
[3.18, 0.949, 11.8, 12.4]

Count: 4. Required value per item: IC50.
1. CCc1ccc(NC(=O)NCC2(C(=O)NCc3ccccc3Cl)CCNCC2)cc1
2. CCc1ccc(NC(=O)OCC2(C(=O)NCc3ccccc3Cl)CCN(C(=O)CO)CC2)cc1
3. CCc1ccc(NC(=O)OCC2(C(=O)NCc3cccc(F)c3)CCN(C(=O)CNC(=O)OC(C)(C)C)CC2)cc1
4. CN(CCN(CCOC(=O)Nc1ccc(C(F)(F)F)cc1)C(=O)NCc1ccccc1Cl)C(=O)CN

Response:
[18.2, 0.173, 8.24, 15]

###

Would you mind telling me the reported IC50 of each entry?
target.or.test.system: crosslinked smooth muscle actomyosin (chicken gizzard smooth muscle myosin subfragment-1 crosslinked to cardiac or skeletal actin) (Gallus gallus)
Form field: result (number plus unit)

Consider the following illustrative entries.
{"molecule": "CCc1ccc(NC(=O)OCC2CN(C(=O)NCc3ccccc3Cl)CCO2)cc1 (stereo not shown)", "IC50": "11.7 µM"}
{"molecule": "Cc1ccc(NC(=O)OCC2(C(=O)NCc3ccccc3Cl)CCOCC2)cc1C(F)(F)F", "IC50": "12.1 µM"}
{"molecule": "CCc1ccc(NC(=O)OCC2(C(=O)NCc3ccccc3Br)CCN(C(=O)CN)CC2)cc1", "IC50": "0.146 µM"}

With those in mind, consider the next molecule.
Query: Given the molecule `CCc1ccc(CC(=O)NCC2(C(=O)NCc3ccccc3Cl)CC2)cc1` , what is its reported IC50?
Response: 18.2 µM
